property-label: melting point

Some molecules with known melting point results, for comparison:
CC(=O)N1CCNC1=Nc1ccc(Cl)cc1Cl
168 to 169 °C
CC(C)C(=O)N(CCCCCC(=O)O)C(c1ccccc1)c1ccccc1
106 to 107 °C
Cc1nc2c(O[C@@H]3c4ccccc4CC[C@H]3O)cccn2c1CC#N (relative stereo)
154 to 155 °C
CC(=O)c1ccc2c(c1)C(C)c1cc(C(C)=O)ccc1-2
128 to 129 °C
CC(C)(C)OC(=O)N1CC=C(c2ccc(N)cc2F)CC1
96 to 98 °C

Query string: Tell us which melting point value is on record for CC(C)N(O)C(=O)c1c([Si](C)(C)C)sc2ccccc12
Result string: 115 to 118 °C

Query string: Tell us which melting point value is on record for CC1=C(C(=O)O)C(c2cccc([N+](=O)[O-])c2)NC(=N[N+](=O)[O-])N1 (centres undefined)
Result string: 236 to 238 °C

Query string: Tell us which melting point value is on record for CCCCCn1c(C)c(C(=O)c2ccc(Br)c3ccccc23)c2cccc(OC)c21
Result string: 114 °C

Query string: Tell us which melting point value is on record for CCC(NC(=O)C(F)F)c1ccc(Cl)c2nc3n(c12)CCCN3c1ccc(Cl)cc1Cl (centres undefined)
Result string: 248 to 250 °C

Query string: Tell us which melting point value is on record for O=C(O)c1ccc(-c2ccc3oc([N+](=O)[O-])c(-c4ccccc4)c3c2)cc1
Result string: 259 to 261 °C

Query string: Tell us which melting point value is on record for O=C(O)Cc1ccccc1Oc1ccc(C(F)(F)F)cc1NS(=O)(=O)c1cc(C(F)(F)F)cc(C(F)(F)F)c1
Result string: 165 to 166 °C

Query string: Tell us which melting point value is on record for COc1cc(C=O)cc2c(N(C)C)cc(C)nc12
Result string: 127 to 129 °C

Query string: Tell us which melting point value is on record for CN1CCC2(CC1)CNc1cc(Cl)ccc12
Result string: 172 to 173 °C

Query string: Tell us which melting point value is on record for O=C(c1ccccc1)c1cc(CN2CCN(c3ccccc3)CC2)on1
Result string: 100 to 102 °C

Cited source for all entries: a melting point compilation (Tetko et al.; mined from patent text by program, amines drawn as free bases though some values may be those of a salt)
